These data points were gathered from patent US20100256357A1.

# ASSAYED SYSTEM: human CA-IV (Homo sapiens, UniProt P22748)
# Construct: made in house; host or cells: Escherichia coli BL21(DE3)
# Sequence (P22748 19-284 limits assumed): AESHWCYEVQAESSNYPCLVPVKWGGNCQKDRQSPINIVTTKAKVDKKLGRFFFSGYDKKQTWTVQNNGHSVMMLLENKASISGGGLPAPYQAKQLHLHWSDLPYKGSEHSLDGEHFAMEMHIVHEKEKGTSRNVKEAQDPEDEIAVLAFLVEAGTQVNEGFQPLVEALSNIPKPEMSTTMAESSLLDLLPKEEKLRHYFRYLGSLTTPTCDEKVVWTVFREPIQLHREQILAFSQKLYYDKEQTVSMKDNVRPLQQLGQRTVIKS
# ASSAY PROTOCOL: Carbonic Anhydrase-IV (CA-IV) Fluorescence Polarization Assay-IC50 Determination
# Assay type: binding
# EXPERIMENTAL CONTEXT: read-out: IC50_CAIV
MEASURED METRIC: IC50 (nM)

// known answers, use as guide
>>> observed("CN(Cc1cc(Cc2ccc(Cl)cc2)n(-c2ccc(S(N)(=O)=O)cc2)n1)C1CCCCC1")
308
>>> observed("CCCN(C)Cc1cc(Cc2ccccc2)n(-c2ccc(S(N)(=O)=O)cc2)n1")
379
>>> observed("NS(=O)(=O)c1ccc(-n2nc(CNCC3CCCCC3)cc2Cc2ccc(Cl)cc2)cc1")
281
>>> observed("CN(Cc1cc(Cc2ccccc2)n(-c2ccc(S(N)(=O)=O)cc2)n1)C1CCCCC1")
314
>>> observed("Cc1cc(C(=O)N2CCN(C)CC2)nn1-c1ccc(S(N)(=O)=O)cn1")
2950

(1) NS(=O)(=O)c1ccc(-n2nc(C(=O)O)cc2Cc2ccc(Cl)cc2)cc1
(2) CCNC(=O)c1cc(C)n(-c2ccc(S(N)(=O)=O)cc2C(=O)OC(C)C)n1
(3) COCCN(C)Cc1cc(Cc2cccc(C)c2)n(-c2ccc(S(N)(=O)=O)cc2F)n1
(4) NS(=O)(=O)c1ccc(-n2nc(CN3CC=CCC3)cc2Cc2ccc(Br)cc2)c(F)c1
I would appreciate it if you could sort these 4 molecules by IC50, starting from the smallest number. // rank by listing labels in the order requested
3, 4, 1, 2
(3: 145 nM, 4: 253 nM, 1: 459 nM, 2: 1310 nM)

---

# ASSAYED SYSTEM: human CA-II (Homo sapiens, UniProt P00918)
# Construct: purchased Sigma-Aldrich C6165
# ASSAY PROTOCOL: Carbonic Anhydrase-II (CA-II) Fluorescence Polarization Tight Binding Assay-Kd Determination
# EXPERIMENTAL CONTEXT: inhibitor concentration 2.5 nM
MEASURED METRIC: inhibition at 0.0025 µM (%)

// known answers, use as guide
>>> observed("C[C@@H](NCc1nc(Cc2ccccc2)n(-c2ccc(S(N)(=O)=O)cc2F)n1)c1ccccc1")
58
>>> observed("NS(=O)(=O)c1ccc(-n2nc(CNC3CCCCC3)nc2Cc2ccccc2)c(F)c1")
68
>>> observed("NS(=O)(=O)c1ccc(-n2nc(CN[C@@H]3COC[C@@H]3C3CC3)nc2Cc2ccccc2)c(F)c1")
50
>>> observed("NS(=O)(=O)c1ccc(-n2nc(CNC[C@@H](O)c3ccccc3)nc2Cc2ccccc2)c(F)c1")
57
>>> observed("NS(=O)(=O)c1ccc(-n2nc(CNCCc3ccccc3)nc2Cc2ccccc2)c(F)c1")
40

(A) NS(=O)(=O)c1ccc(-n2nc(CNCc3ccccc3F)nc2Cc2ccccc2)c(F)c1
(B) COC[C@H](C)NCc1nc(Cc2ccccc2)n(-c2ccc(S(N)(=O)=O)cc2F)n1
Task for the reader: decide whether A or B has the larger inhibition at 0.0025 µM. Your answer should be the label attached to the chosen record.
B

(P) CC(C)OCCNCc1nc(Cc2ccccc2)n(-c2ccc(S(N)(=O)=O)cc2F)n1
(Q) NS(=O)(=O)c1ccc(-n2nc(CN[C@H]3CCCC[C@H]3O)nc2Cc2ccccc2)c(F)c1
Task for the reader: decide whether P or Q has the larger inhibition at 0.0025 µM. Your answer should be the label attached to the chosen record.
Q

(1) NS(=O)(=O)c1ccc(-n2nc(CNCCOc3ccccc3)nc2Cc2ccccc2)c(F)c1
(2) CC(Cn1cccn1)NCc1nc(Cc2ccccc2)n(-c2ccc(S(N)(=O)=O)cc2F)n1 (stereo not drawn)
Could you tell me which of 1 and 2 has the lower inhibition at 0.0025 µM reading? Your answer should be the label attached to the chosen record.
1

---

# ASSAYED SYSTEM: human CA-IV (Homo sapiens, UniProt P22748)
# Construct: made in house; host or cells: Escherichia coli BL21(DE3)
# ASSAY PROTOCOL: Carbonic Anhydrase-IV (CA-IV) Fluorescence Polarization Assay-IC50 Determination
# Format: binding
# EXPERIMENTAL CONTEXT: read-out: CA-IV IC50
MEASURED METRIC: IC50 (nM)

// known answers, use as guide
>>> observed("CCN(CCCCO)C(=O)c1nc(Cc2ccccc2)n(-c2ccc(S(N)(=O)=O)cc2)n1")
306
>>> observed("COc1cccc(CNC(=O)c2nc(Cc3ccccc3)n(-c3ccc(S(N)(=O)=O)cc3)n2)c1")
361

(I) Cc1ccccc1Cn1cc(C(F)(F)F)nc1-c1ccc(S(N)(=O)=O)cc1
(II) NS(=O)(=O)c1ccc(-n2nc(C(=O)N(CCO)Cc3ccccc3)nc2Cc2ccccc2)cc1
Could you tell me which of I and II has the lower IC50 reading? Your answer should be the label attached to the chosen record.
II
(II: 87 nM, I: 346 nM)

---

# ASSAYED SYSTEM: human CA-IV (Homo sapiens)
# Construct: made in house; host or cells: Escherichia coli BL21(DE3)
# ASSAY PROTOCOL: Carbonic Anhydrase-IV (CA-IV) Fluorescence Polarization Assay-IC50 Determination
# Format: binding
# EXPERIMENTAL CONTEXT: read-out: IC50_CAIV
MEASURED METRIC: IC50 (nM)

// known answers, use as guide
>>> observed("CCCCN(C)Cc1cc(Cc2ccccc2)n(-c2ccc(S(N)(=O)=O)cc2F)n1")
278
>>> observed("C[C@@H]1CN(Cc2cc(Cc3ccccc3)n(-c3ccc(S(N)(=O)=O)cc3)n2)C[C@H](C)O1")
400
>>> observed("CCNC(=O)c1cc(C)n(-c2ccc(S(N)(=O)=O)cc2C(=O)NCc2ccccc2)n1")
2190
>>> observed("Cc1cccc(Cc2cc(CN3CCCC(C#N)C3)nn2-c2ccc(S(N)(=O)=O)cc2F)c1 (stereo not drawn)")
168
>>> observed("C[C@@H]1CN(Cc2cc(Cc3ccccc3)n(-c3ccc(S(N)(=O)=O)cc3F)n2)C[C@H](C)O1")
480
>>> observed("CCCCN(C)Cc1cc(Cc2ccc(Br)cc2)n(-c2ccc(S(N)(=O)=O)cc2F)n1")
171

(A) NS(=O)(=O)c1ccc(-n2nc(CO)cc2Cc2ccc(Cl)cc2)cc1
(B) CCCCN(C)Cc1cc(Cc2ccc(Cl)cc2)n(-c2ccc(S(N)(=O)=O)cc2)n1
(C) CN(Cc1cc(Cc2ccccc2)n(-c2ccc(S(N)(=O)=O)cc2F)n1)C1CCCCC1
(D) Cc1cccc(Cc2cc(CN3CCC(F)(F)C3)nn2-c2ccc(S(N)(=O)=O)cc2F)c1
(E) CCOC(=O)c1cc(C)n(-c2ccc(S(N)(=O)=O)cn2)n1
I would appreciate it if you could sort these 5 compounds by IC50, starting from the smallest number. // rank by listing labels in the order requested
D, C, A, B, E

(I) CN(CCc1ccccn1)Cc1cc(Cc2ccc(Cl)cc2)n(-c2ccc(S(N)(=O)=O)cc2)n1
(II) NS(=O)(=O)c1ccc(-n2nc(CN3CC=CCC3)cc2Cc2ccccc2)cc1
(III) CCNC(=O)c1cc(C)n(-c2ccc(S(N)(=O)=O)cc2C(=O)NCc2ccncc2)n1
Returns the items ordered by IC50, from maximum to minimum. // rank by listing labels in the order requested
III, II, I

---

# ASSAYED SYSTEM: human CA-II (Homo sapiens)
# Construct: purchased Sigma-Aldrich C6165
# ASSAY PROTOCOL: Carbonic Anhydrase-II (CA-II) Fluorescence Polarization Tight Binding Assay-Kd Determination
# EXPERIMENTAL CONTEXT: inhibitor concentration 2.5 nM
MEASURED METRIC: inhibition at 0.0025 µM (%)

>>> observed("COC[C@@H](NCc1nc(Cc2ccccc2)n(-c2ccc(S(N)(=O)=O)cc2F)n1)c1ccccc1")
41
>>> observed("Cc1cccc(CC(C)NCc2nc(Cc3ccccc3)n(-c3ccc(S(N)(=O)=O)cc3F)n2)n1 (stereo not shown)")
71
>>> observed("NS(=O)(=O)c1ccc(-n2nc(CNCCOc3ccccc3F)nc2Cc2ccccc2)c(F)c1")
38
>>> observed("NS(=O)(=O)c1ccc(-n2nc(CNC3CCCCCC3)nc2Cc2ccccc2)c(F)c1")
68
>>> observed("C[C@H](NCc1nc(Cc2ccccc2)n(-c2ccc(S(N)(=O)=O)cc2F)n1)[C@H](O)c1ccccc1")
63
>>> observed("NS(=O)(=O)c1ccc(-n2nc(CNCc3cc(F)ccc3F)nc2Cc2ccccc2)c(F)c1")
57
>>> observed("NS(=O)(=O)c1ccc(-n2nc(CN3CCC[C@@H](O)C3)nc2Cc2ccccc2)c(F)c1")
65
>>> observed("NS(=O)(=O)c1ccc(-n2nc(CNCCc3ccccc3F)nc2Cc2ccccc2)c(F)c1")
51
>>> observed("CCC(NCc1nc(Cc2ccccc2)n(-c2ccc(S(N)(=O)=O)cc2F)n1)c1ccccc1 (stereo not shown)")
51
>>> observed("NS(=O)(=O)c1ccc(-n2nc(CNCCc3cccc(F)c3)nc2Cc2ccccc2)c(F)c1")
50
>>> observed("COc1ccc(CCNCc2nc(Cc3ccccc3)n(-c3ccc(S(N)(=O)=O)cc3F)n2)cc1")
51
>>> observed("C[C@@H]1COCCN1Cc1nc(Cc2ccccc2)n(-c2ccc(S(N)(=O)=O)cc2F)n1")
58
>>> observed("NS(=O)(=O)c1ccc(-n2nc(CN[C@H](CO)Cc3ccccc3)nc2Cc2ccccc2)c(F)c1")
49
>>> observed("CCCN(C)Cc1nc(Cc2ccccc2)n(-c2ccc(S(N)(=O)=O)cc2F)n1")
42
>>> observed("CC(C)CCNCc1nc(Cc2ccccc2)n(-c2ccc(S(N)(=O)=O)cc2F)n1")
53
>>> observed("NS(=O)(=O)c1ccc(-n2nc(CNCc3ccc(F)cc3)nc2Cc2ccccc2)c(F)c1")
50
